From: PubChem BioAssay AID1159580

assay: chemical genetic growth profiling, strain panel (AID 1159580);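 note: tested at 20 µM; growth read once vehicle control cultures reached saturation at 30 °C; 1 = growth at the plate median or of vehicle wells; lower values mean less growth of the strain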; details: S. cerevisiae deletion strains, growth OD, locus YKL160W, strain elf1, hits give low values
About 2,000 (36%) of roughly 5,500 compounds were called active. Another 18% or so got no clear call; they are omitted. Some of the results follow.
normalized growth listing for selected molecules.
measureName: normalized growth

> print(dat)
                                   molecule        measurename  testresult
1  C#C[C@]1(O)CCC2C3CCC4=CC(=O)CC[C@@H]4C3CC[C@@]21C (some centres not stated)  normalized growth        1.01
2  C#C[C@]1(O)CCC2C3CCC4=C(CCC(=O)C4)C3CC[C@@]21C (some centres not stated)  normalized growth       0.998
3  C[C@]12CCC(=O)C=C1CCC1C2[C@@H](O)C[C@@]2(C)C1CC[C@]2(O)C(=O)CO (some centres not stated)  normalized growth       0.955
4  C#C[C@]1(OC(C)=O)CCC2C3CCC4=CC(=O)CC[C@@H]4C3CC[C@@]21C (some centres not stated)  normalized growth       0.964
5  COc1cc(N)c(Cl)cc1C(=O)NC1CCN(Cc2ccccc2)CC1  normalized growth       0.991
6  C#C[C@]1(O)CCC2C3CCC4=CC(=O)CC[C@@H]4C3CC[C@@]21CC (some centres not stated)  normalized growth       0.988
7     Nc1ccc(S(=O)(=O)Nc2ccnn2-c2ccccc2)cc1  normalized growth       0.989

====

normalized growth listing for selected molecules.
assay: chemical genetic growth profiling, strain panel (AID 1159580);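 note: tested at 20 µM; growth read once vehicle control cultures reached saturation at 30 °C; 1 = growth at the plate median or of vehicle wells; lower values mean less growth of the strain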; conditions: S. cerevisiae deletion strains, growth OD, locus YGL248W, strain PDE1, hits give low values
About 2,000 (36%) of roughly 5,500 compounds were called active. About 18% were inconclusive and are not listed. The list shows a part of the results.
measureName: normalized growth

> print(dat)
                                   molecule        measurename  testresult
1  COc1ccc2c(c1)c(CC(=O)O)c(C)n2C(=O)c1ccc(Cl)cc1  normalized growth        1.01
2  CC(=O)Nc1ccc(OCC(O)CNC(C)C)cc1 (stereo not given)  normalized growth           1
3  CC(C)(Sc1cc(C(C)(C)C)c(O)c(C(C)(C)C)c1)Sc1cc(C(C)(C)C)c(O)c(C(C)(C)C)c1  normalized growth        1.01
4  C#C[C@]1(OC(C)=O)CCC2C3CCC4=CC(=O)CC[C@@H]4C3CC[C@@]21C (stereo not given in full)  normalized growth       0.967
5  COC(=O)/C(C)=C\CC12OC(C)(C)C3CC(C=C4C(=O)c5c(O)c6c(c(CCC(C)(C)Cl)c5OC431)OC1(C)CCC(=C(C)C)C6C1)C2=O (stereo not given)  normalized growth        0.98

====

experiment: chemical genetic growth profiling, strain panel (AID 1159580);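 note: tested at 20 µM; growth read once vehicle control cultures reached saturation at 30 °C; 1 = growth at the plate median or of vehicle wells; lower values mean less growth of the strain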; settings: S. cerevisiae deletion strains, growth OD, locus YKL203C, strain TOR2, hits give low values
Hit rate of the full screen: of about 5,500 compounds, about 2,000 (36%) were called active. Roughly 18% stayed inconclusive and do not appear here. Some of the results follow.
normalized growth listing for selected compounds.
measureName: normalized growth

> print(dat)
                         structurestring  testresult
1       Clc1ccc2c(c1)c1ccccc1n2CN1CCOCC1       0.598
2  O=C(CSCc1csc2ccccc12)Nc1ccc(F)c(Cl)c1        0.96
3     Cc1nc(-c2cccnc2)nc(NCc2ccccc2)c1Cl       0.923
